Documented Kd across a set of binders
- target-desc: T1, human serum albumin (human, UniProt P02768 25-609)
- T1 construct: mature; Bought purified serum albumin; also called HSA; Human albumin
- assay-info: SPR, Fab captured; albumin taken as HSA;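 further: antibody held on a capture surface, albumin injected for 3 min association then dissociation followed, signals corrected using a blank reference flow cell and buffer-only injections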
Please give a number only; it is taken to be in nM.

binder	readout-units	Kd
CA645 gL4gH43 Fab (Fab, V domains shown, Fab: human gamma1 CH1, human kappa (Km3); Kabat numbering) VH: EVQLLESGGGLVQPGGSLRLSCAVSGIDLSNYAINWVRQAPGKGLEWIGIIWASGTTFYATWAKGRFTISRDNSKNTVYLQMNSLRAEDTAVYYCARTVPEYSTAPYFDLWGQGTLVTVSS VL: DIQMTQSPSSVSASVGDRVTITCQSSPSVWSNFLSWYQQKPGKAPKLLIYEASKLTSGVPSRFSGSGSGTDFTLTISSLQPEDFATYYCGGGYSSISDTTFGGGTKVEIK	nM	7.39
CA645 gL4gH30 Fab (Fab, V domains shown, Fab: human gamma1 CH1, human kappa (Km3); Kabat numbering) VH: EVQLLESGGGLVQPGGSLRLSCAVSGIDLSNYAINWVRQAPGKGLEWIGIIWTSGTTFYATWAKGRFTISRDNSKNTVYLQMNSLRAEDTAVYYCARTVPGYSTAPYFDLWGQGTLVTVSS VL: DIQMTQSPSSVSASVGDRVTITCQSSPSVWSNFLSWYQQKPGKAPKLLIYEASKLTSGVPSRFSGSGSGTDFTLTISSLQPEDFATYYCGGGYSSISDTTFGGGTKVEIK	nM	23.2

Request: Fill in: Kd of CA645 gL4gH28 Fab (Fab, V domains shown, Fab: human gamma1 CH1, human kappa (Km3); Kabat numbering) VH: EVQLLESGGGLVQPGGSLRLSCAVSGIDLSNYAINWVRQAPGKGLEWIGIIWVSGTTFYATWAKGRFTISRDNSKNTVYLQMNSLRAEDTAVYYCARTVPGYSTAPYFDLWGQGTLVTVSS VL: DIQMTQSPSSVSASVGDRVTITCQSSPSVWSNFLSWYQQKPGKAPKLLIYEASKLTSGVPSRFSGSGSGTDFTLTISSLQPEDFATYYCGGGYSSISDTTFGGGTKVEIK is ___
Result: 10.6
